# tested.system: T1, Fc
# T1 construct: domain: Fc
# assay.notes: phage ELISA, Fc coated
Listed here are binders together with their documented OD490.
State just the number; it will be interpreted in OD.

Enquiry: Query OD490 for ACVR2B A06 (monoclonal scFv-phage) (scFv, V domains shown, also called A6) VH: VQLVQSGGGLVQPGRSLRLSCTASGFTFGDYAMSWVRQAPGKGLEWVGFIRSKRYDGTAEYAASVKGRFTISRDDSKNSLYLQMNSLRAEDTAVYYCARGHYAMDVWGQGTTVTVSS VL: DIQMTQSPSSLSASVGDRVTITCRASRSISNYLNWYQQKPGKAPKLLIYAASSLQSGVPSRFSGSGSGTDFTLTISSLQPEDFATYYCQQSYDTPFTFGLGNQLEIK
Return: 0.046

Enquiry: Give the value of OD490 reported for the following: ACVR2B B12 (monoclonal scFv-phage) (scFv, V domains shown) VH: VQLVQSGAEVKKPGESLKISCKTSGYTFTHYWIGWVRQMPGKGLEWMGRINPTDSYADYSPSFQGHVIMSVDKSVSTAYLHWNSLKASDTAMYYCARGTALGVWGQGTTVTVSS VL: IQMTQSPSAMSASVGDRVTITCRASQGISNYLAWFQQKPGKVPKRLIYAASSLQSGVPSRFSGSGSGTEFTLTITSLQPEDFATYYCLQHKSYPYTFGQGTKLEIK
Return: 0.044

Enquiry: Name the recorded OD490 of the item ACVR2B C08 (monoclonal scFv-phage) (scFv, V domains shown, also called C8) VH: VQLVESGGGLVQPGGSLRLSCSASGFTFSSYAMHWVRQAPGKGLEYVSAISSNGGSTYYADSVKGRFTISRDNSKNTLYLQMNSLRAEDTAVYYCAKTYGGYGNAFDIWGQGTMITVSS VL: DIQMTQSPSSVSASVGDRVTITCRASQGISRWLAWYQQKPGKAPKLLIYAASNLQSGVPSRFSGSGSGTDFTLTINSLQPEDFATYFCQQGKSFPYTFGPGTKVEIK in your answer.
Return: 0.072

Enquiry: Specify reported OD490 for the binder shown: ACVR2B C07 (monoclonal scFv-phage) (scFv, V domains shown, also called C7) VH: QMQLVQSGGGLVKPGGSLRLSCAPSGFTFRDYHMSWIRQAPGKGLEWISNISNSGTNIYYADSVKGRFTISRDNAKNSLYLQMNSLRAEDTAVYYCARGHYGMDIWGQGTTITVSS VL: DIQMTQSPSSLSASVGDRVTITCRASQGIANYLAWYQQKPGKAPKLLIYAASTLQSGVPSRFSGSGSGTDFTLTISSLQPEDFATYYCQQVKSYPLSFGGGTKVEIK
Return: 0.043

Others:
Enquiry: Report OD490, nothing else, for this binder: ACVR2B F08 (monoclonal scFv-phage) (scFv, V domains shown, also called F8) VH: VQLVESGGGLVQPGGSLRLSCAASGFTFSDHYMDWVRQAPGKGLEWVGRTRNKANSYTTEYAASVKGRFTISRDDSKNSLYLQMNSLRAEDTAVYYCTKGAWLDYWGQGTLVTVSS VL: IQMTQSPSAMSASVGDRVTITCRASQGISNYLAWFQQKPGKVPKRLIYGASSLQGGVPSRFSGSGSGTEFTLTITSLQPEDFATYFCLQHKSYPLTFGPGTKVEIK
Return: 0.116
